- TEST: TUNEL / propidium iodide flow cytometry, PBMC all cells, culture medium
- Assay type: cell-based, human
- CONDITION LABEL: human, pbmc, PBMC all cells, 50 μg/ml, 6 h; mean ± SD of two experiments; read-out: % Propidium Iodide Positive
READOUT NAME: cytotoxicity at 6 h

So for O=S1(=O)CCN(CN2CCS(=O)(=O)NC2)CN1 , the logged cytotoxicity at 6 h turned out to be 12.2%

###

- TEST: TUNEL / propidium iodide flow cytometry, PBMC all cells, culture medium
- Format: cell-based, human
- CONDITION LABEL: human, pbmc, PBMC all cells, 25 μg/ml, 6 h; mean ± SD of two experiments; read-out: % Propidium Iodide Positive
READOUT NAME: cytotoxicity at 6 h
The reply must contain the numeric value and, after it, the unit.

cytotoxicity at 6 h for O=S1(=O)CCN(CN2CCS(=O)(=O)NC2)CN1 [taurolidine] is 9%
